# Tested on: CCRF-CEM
# PROTOCOL: NCI tumour cell line growth inhibition, 48 h
The source made the active and inactive calls. Cut-off read from the data, not from the text of the source: active = GI50 up to about 1.1 µM and inactive = higher.
Outcomes: t (active), f (inactive)

{"columns": ["COMPOUND", "ASSIGNED CLASS"],
 "data": [
  ["CC(=O)Oc1cc(C)c(OC(C)=O)c2c1[C@H]1CC[C@]3(C)[C@@H](OC(C)=O)CC[C@H]3[C@@H]1CC2", "f"],
  ["O=c1c2cccnc2[s+]([O-])n1Cc1ccccc1 (configuration not stated)", "f"],
  ["C/C(=N\\O)c1cccc(Nc2c3ccccc3nc3occc23)c1", "f"],
  ["CC1C(=O)OCC2=CCN3CCC(OC(=O)C(C)C1(C)O)C23 (configuration not stated)", "f"],
  ["C=C1C(=O)O[C@H]2C/C(C)=C/CC[C@]3(C)CCC[C@](C)(CC[C@@H]12)O3", "t"],
  ["N#CCN1C(=O)c2cc([N+](=O)[O-])cc3cc([N+](=O)[O-])cc(c23)C1=O", "f"],
  ["C=CCOC(=O)[C@@H]1C[C@@H](OC(C)(C)C)CN1C(=O)[C@@H]1[C@H]2OC(C)(C)O[C@H]2CN1C(=O)OCC1c2ccccc2-c2ccccc21", "f"],
  ["COc1cc2c(C)cc(O)cc2c2cc(O)c(C)cc12", "f"],
  ["CC(C)(Oc1ccc(Cl)cc1)C(=O)N(C(=O)N1CCC(c2ccccc2)CC1)c1ccccc1", "f"],
  ["C=C(C)C1Cc2c(cc(O)c3c(=O)c4ccccc4n(C)c23)O1 (configuration not stated)", "f"],
  ["O=C(NNCc1ccccc1O)c1ccccc1O", "t"],
  ["CCOC(=O)C1C(=O)CC1(C)C (configuration not stated)", "f"],
  ["C=C1CC(CNc2cc(Cl)nc(N)n2)C1", "f"],
  ["CC1(C)C2CCC(O)(C2)C1N (configuration not stated)", "f"],
  ["COc1nc2c(c(=O)[nH]1)N=C(c1ccccc1)CC(c1ccccc1)N2 (configuration not stated)", "f"],
  ["Cc1nc2cc3ccccc3cc2[nH]c1=O", "f"],
  ["CCOC(=O)C(=O)N/N=C1\\C(=O)Nc2ccccc21", "f"],
  ["COc1ccccc1NC1=NCC(C)S1 (configuration not stated)", "f"],
  ["CC(C)(Cl)C(Br)CC/C(=C/CCl)CBr.CC(C)(Cl)C(Br)CC/C(=C\\CCl)CBr (configuration not stated)", "f"],
  ["COC(=O)C12C3C4C1C1C2C3C41C(=O)O (configuration not stated)", "f"],
  ["CSC1=Nc2ccccc2-c2nc(-c3ccccc3)cc(-c3ccccc3)c2C1", "f"],
  ["COc1cc(CO)cc2c1[nH]c1ccccc12", "f"],
  ["COC(=O)Nc1nc2cc(S(=O)(=O)Nc3ccccn3)ccc2[nH]1", "f"],
  ["Cc1cc2c(cc1C)[n+]([O-])c(C(=O)C/C(=N/NC(=S)NN)C(=O)Nc1cccc(C(F)(F)F)c1)c[n+]2[O-]", "f"],
  ["CC1(C)OC2C(CO)OC(n3ccc(=O)[nH]c3=O)C2O1 (configuration not stated)", "f"],
  ["C[C@H]1C(OCCOC2O[C@@H]3O[C@@]4(C)CC[C@H]5[C@H](C)CCC([C@H]2C)[C@@]35O4)O[C@@H]2O[C@@]3(C)CC[C@H]4[C@H](C)CCC1[C@@]24O3 (some centres not stated)", "f"],
  ["FC(F)(Sc1nc2ccccc2[nH]1)c1nc2ccccc2o1", "f"],
  ["CC#CCCCC1(C)CCCNC1=S (configuration not stated)", "f"],
  ["Cc1nc(Nc2ccc([N+](=O)[O-])cc2)sc1C(/C=C/c1ccc(N(C)C)cc1)=N/NC(=O)c1ccccc1", "f"],
  ["CC1(Br)Cc2ccccc2C1=O (configuration not stated)", "f"],
  ["c1ccc2c(CNCCCCCCCCCCCCNCc3cccc4ccccc34)cccc2c1", "f"],
  ["O=c1c2cc(I)ccc2nc(-c2cccs2)n1O", "f"],
  ["COc1cc(S(=O)(=O)Nc2nc(-c3ccc(N4C(=O)/C(=C/c5ccccc5[N+](=O)[O-])N=C4c4ccccc4)cc3)cs2)ccc1Cl", "f"],
  ["COc1ccc2[nH]c3c(c2c1)CC(=O)N1CCC[C@H](C1)CC31OCCCO1", "f"],
  ["C/C(CN1C(=O)c2ccccc2C1=O)=N\\NS(=O)(=O)c1cccc([N+](=O)[O-])c1", "f"],
  ["Cc1c(OC(C)C(=O)O)ccc2c(-c3ccccc3)cc(=O)oc12 (configuration not stated)", "f"],
  ["O=C(c1ccsc1)c1cc2c(s1)C(=O)c1ccsc1C2=O", "t"],
  ["O=[N+]([O-])C(=C1Nc2ccccc2N1)C(Cl)=C(Cl)Cl", "f"],
  ["C=CCNc1nc(C#N)c(N)s1", "f"],
  ["Cc1nn(C(=O)c2ccc(Cl)cc2)c2c1C(c1ccccc1O)SC(=N)N2 (configuration not stated)", "f"],
  ["COc1ccc(/C(C)=N/NC(N)=S)c(OC)c1", "f"],
  ["Cc1ccc(S(=O)(=O)N2CCCC2C(=O)O[C@H]2CC[C@H]3CC=C[C@H]32)cc1 (some centres not stated)", "f"]
]}
